Measured target: Cholinesterase (Homo sapiens)
Sequence (P06276 whole entry): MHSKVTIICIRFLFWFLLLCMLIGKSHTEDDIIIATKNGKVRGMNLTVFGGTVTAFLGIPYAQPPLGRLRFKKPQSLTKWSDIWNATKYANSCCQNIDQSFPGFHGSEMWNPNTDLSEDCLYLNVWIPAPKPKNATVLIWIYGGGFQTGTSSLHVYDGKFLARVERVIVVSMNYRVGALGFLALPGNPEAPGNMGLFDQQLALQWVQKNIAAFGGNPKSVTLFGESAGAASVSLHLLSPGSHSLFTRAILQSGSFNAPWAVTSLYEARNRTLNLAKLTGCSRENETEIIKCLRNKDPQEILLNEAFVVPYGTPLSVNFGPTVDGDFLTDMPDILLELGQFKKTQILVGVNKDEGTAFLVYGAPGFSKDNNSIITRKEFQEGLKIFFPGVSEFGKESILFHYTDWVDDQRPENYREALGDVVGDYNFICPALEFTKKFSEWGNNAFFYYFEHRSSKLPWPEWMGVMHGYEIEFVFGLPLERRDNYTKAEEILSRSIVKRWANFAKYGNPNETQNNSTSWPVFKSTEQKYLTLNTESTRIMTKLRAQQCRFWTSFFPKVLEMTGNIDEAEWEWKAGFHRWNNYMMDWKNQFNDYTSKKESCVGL
Test method notes: Inhibition of BChE
Measurement setup: read-out: IC50
pIC50: −log10 of the molar value.
// not satisfied strictly below 5 in pIC50; satisfied otherwise

{"Compound": "COc1ccc2c(c1)c1cc[n+](C)cc1n2C", "Label value": "not satisfied"}
{"Compound": "Cc1nccc2c1[nH]c1ccc(O)cc12", "Label value": "not satisfied"}
{"Compound": "Cc1c2c(cc[n+]1C)c1cc(O)ccc1n2C", "Label value": "satisfied"}
{"Compound": "COc1ccc2[nH]c3c(c2c1)CCNC3C (stereo not drawn) [ADRENOGLOMERULOTROPIN]", "Label value": "not satisfied"}
{"Compound": "Cc1c2[nH]c3ccc(O)cc3c2cc[n+]1C", "Label value": "satisfied"}
{"Compound": "Cn1c2ccc(O)cc2c2cc[n+](C)cc21", "Label value": "not satisfied"}
{"Compound": "COc1ccc2c(c1)c1cc[n+](C)c(C)c1n2C", "Label value": "not satisfied"}
{"Compound": "COc1ccc2[nH]c3c(C)nccc3c2c1", "Label value": "not satisfied"}
{"Compound": "COc1ccc2[nH]c3cnccc3c2c1", "Label value": "not satisfied"}
{"Compound": "COc1ccc2[nH]c3c(c2c1)CCNC3", "Label value": "not satisfied"}
{"Compound": "Oc1ccc2[nH]c3cnccc3c2c1", "Label value": "not satisfied"}
{"Compound": "Cn1c2ccc(O)cc2c2ccncc21", "Label value": "not satisfied"}
{"Compound": "COc1ccc2[nH]c3c(C)[n+](C)ccc3c2c1", "Label value": "satisfied"}
{"Compound": "COc1ccc2[nH]c3c[n+](C)ccc3c2c1", "Label value": "not satisfied"}
{"Compound": "COc1ccc2c(c1)c1ccncc1n2C", "Label value": "not satisfied"}
{"Compound": "Cc1nccc2c3cc(O)ccc3n(C)c12", "Label value": "not satisfied"}
{"Compound": "COc1ccc2c(c1)c1ccnc(C)c1n2C", "Label value": "not satisfied"}
